- method summary: Cmax in Han Wistar rat at 50 mg/kg, po up to 24 hrs by LC-MS analysis
- Type: ADME, organism-based
- Parameters: dose 50 mg/kg, route oral
- experimental setup: in vivo
assay readout: Cmax (ng/mL)
Give bare numbers, in ng/mL.

Q: Specify reported Cmax for the compound shown: CCN(C(C)=O)c1ccc(OC)c2nc(NC(=O)c3ccnn3C)sc12
A: 7420

====

- method summary: Half life in Han Wistar rat at 50 mg/kg, po up to 24 hrs by LC-MS analysis
- Assay type: ADME, organism-based
- Parameters: dose 50 mg/kg, route oral
- experimental setup: in vivo
assay readout: half-life (h)
Give bare numbers, in h.

Q: Quickly give me recorded half-life for CCN(C(C)=O)c1ccc(OC)c2nc(NC(=O)c3ccnn3C)sc12
A: 2.1

====

- assayed system: Adenosine receptor A2b (Homo sapiens)
- Sequence (P29275 whole entry): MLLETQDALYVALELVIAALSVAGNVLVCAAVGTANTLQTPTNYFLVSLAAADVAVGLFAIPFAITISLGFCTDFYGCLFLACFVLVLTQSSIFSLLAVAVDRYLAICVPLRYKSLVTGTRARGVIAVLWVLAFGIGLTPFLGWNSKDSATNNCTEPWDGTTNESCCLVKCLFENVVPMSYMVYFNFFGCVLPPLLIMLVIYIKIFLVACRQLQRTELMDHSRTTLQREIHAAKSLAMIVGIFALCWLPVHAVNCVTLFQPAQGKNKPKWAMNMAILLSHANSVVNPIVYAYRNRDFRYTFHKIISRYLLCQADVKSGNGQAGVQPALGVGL
- method summary: Antagonist activity at human adenosine A2B receptor expressed in CHO cells assessed as inhibition of adenosine-induced cAMP production
Kindly supply the reported IC50 values for the records listed here.
Answers are plain numbers, in nM.

Okay, here is my list. What is IC50 for each of these?
1. CCN(C(C)=O)c1ccc(OC)c2nc(NC(=O)c3ccc(S(C)(=O)=O)cc3)sc12
2. CCN(C(C)=O)c1ccc(OC)c2nc(NC(=O)c3cn[nH]c3)sc12
3. CCN(C(C)=O)c1ccc(OC)c2nc(NC(=O)c3cc[nH]c3)sc12

A:
1: 36; 2: 21; 3: 7

Please look at the items below and tell me IC50 for each one, in order.
1. CCN(C(C)=O)c1ccc(OC)c2nc(NC(=O)c3ccc(CN(C)S(C)(=O)=O)cc3)sc12
2. COc1ccc(N(CCO)C(C)=O)c2sc(NC(=O)c3ccc(F)cc3)nc12
3. CCN(C(C)=O)c1ccc(OC)c2nc(NC(=O)c3ccc(C(=O)N4CCCCC4)cc3)sc12
4. COc1ccc(N(CCCO)C(C)=O)c2sc(NC(=O)c3ccc(F)cc3)nc12
5. COCCN(C(C)=O)c1ccc(OC)c2nc(NC(=O)c3ccc(F)cc3)sc12
6. COc1ccc(N(C(C)=O)C(F)F)c2sc(NC(=O)c3ccc(F)cc3)nc12
7. CCN(C(C)=O)c1ccc(OC)c2nc(NC(=O)c3ccc(C(=O)N4CCCC4)cc3)sc12
8. CCN(C(C)=O)c1ccc(OC)c2nc(NC(=O)c3ccc(F)cc3)sc12

A:
1: 19; 2: 77; 3: 16; 4: 42; 5: 33; 6: 230; 7: 16; 8: 12

# per-item lookup of IC50; items listed below
1. CCN(C(C)=O)c1ccc(OC)c2nc(NC(=O)c3ccc(-n4cnnn4)cc3)sc12
2. COc1ccc(N(CC(F)(F)F)C(C)=O)c2sc(NC(=O)c3ccc(F)cc3)nc12
3. COc1ccc(NC(C)=O)c2sc(NC(=O)c3ccc(F)cc3)nc12
4. COc1ccc(N(CC(C)C)C(C)=O)c2sc(NC(=O)c3ccc(F)cc3)nc12

A:
1: 28; 2: 40; 3: 350; 4: 23

Provide the reported IC50 of each entry below, same order.
1. CCN(C(C)=O)c1ccc(OC)c2nc(NC(=O)c3ccc(C(=O)N(C)CCOC)cc3)sc12
2. CCN(C(C)=O)c1ccc(OC)c2nc(NC(=O)c3ccc(C(=O)N4CCOCC4)cc3)sc12

A:
1. 13
2. 21
